Species on record: Canis familiaris
Assay: Relative activity (fraction of the most active compound 24) was determined
Type: functional, Canis lupus familiaris
Listed below: Relative activity values for each entry.
Quick one: just the number, no unit, thanks!

CN1CCC/C1=N\CCSc1c[nH]c2ccc(Cl)cc12    0.14
CCCc1[nH]c2ccccc2c1SCCNC1=NCCN1C    0.2
CC(=NCCSc1c[nH]c2ccccc12)N(C)C    0.36
CN1CCC/C1=N\CCCCSc1c[nH]c2ccccc12    0.31
C=CCn1cc(CC/N=C2/CCCN2C)c2ccccc21    0.38

Could you please provide reported Relative activity for CN1CCC/C1=N\CCSc1cn(C2CCCC2)c2ccccc12 ? Thanks! 0.24

Could you please provide reported Relative activity for C=CCN1CCC/C1=N\CCSc1c[nH]c2ccccc12 ? Thanks! 0.55

Could you please provide reported Relative activity for CCn1cc(CC/N=C2/CCCN2C)c2ccccc21 ? Thanks! 0.79

###

Listed below: Relative activity values for each entry.
Species on record: Canis familiaris
Experiment: Relative activity (fraction of the most active compound 24) was determined
Assay type: functional, Canis lupus familiaris
Quick one: just the number, no unit, thanks!

Could you please provide reported Relative activity for C=CCn1cc(SCC/N=C2\CCCN2C)c2ccccc21 ? Thanks! 0.69

Could you please provide reported Relative activity for CN1CCC/C1=N\CCSc1cn(Cc2ccco2)c2ccccc12 ? Thanks! 0.27

Could you please provide reported Relative activity for C#CCn1c(C)c(SCC/N=C2\CCCN2C)c2ccccc21 ? Thanks! 0.11

###

Species on record: Canis familiaris
Test: Relative activity (fraction of the most active compound 24) was determined
Format: functional, Canis lupus familiaris
measured.metric: Relative activity
Quick one: just the number, no unit, thanks!

CCCc1[nH]c2ccccc2c1SCC/N=C1\CCCN1C    0.11

Could you please provide reported Relative activity for COCCn1cc(SCC/N=C2\CCCN2C)c2ccccc21 ? Thanks! 0.37

Could you please provide reported Relative activity for CCN1CC(CC/N=C2\CCCN2C)c2ccccc21 (stereo not drawn) ? Thanks! 0.17

###

Organism: Canis familiaris
Assay: Relative activity (fraction of the most active compound 24) was determined
Assay type: functional, Canis lupus familiaris
measured.metric: Relative activity

Worked examples follow.
CCn1cc(SCC/N=C2\CCCN2C)c2ccccc21    0.85
CN1CCC/C1=N\CCSc1c[nH]c2ccccc12    0.26
CN1CCN=C1NCCCCSc1c[nH]c2ccccc12    0.03

Could you please provide reported Relative activity for Cc1c(SCC/N=C2\CCCN2C)c2ccccc2n1C ? Thanks! 0.43

Could you please provide reported Relative activity for CN1CCC/C1=N/CCCSc1c[nH]c2ccccc12 ? Thanks! 0.17

Could you please provide reported Relative activity for Cc1[nH]c2ccccc2c1SCCNC1=NCCN1C ? Thanks! 0.23

Could you please provide reported Relative activity for CCn1cc(SCCCC/N=C2\CCCN2C)c2ccccc21 ? Thanks! 0.71

Could you please provide reported Relative activity for Cc1[nH]c2ccc(Cl)cc2c1SCC/N=C1\CCCN1C ? Thanks! 0.23

Could you please provide reported Relative activity for CN1CCC/C1=N\CCSc1cn(C/C=C/c2ccccc2)c2ccccc12 ? Thanks! 0.12

Could you please provide reported Relative activity for CN1CCC/C1=N/CCc1cn(Cc2ccccc2)c2ccccc12 ? Thanks! 0.29

Could you please provide reported Relative activity for C=C(C)Cn1cc(SCC/N=C2\CCCN2C)c2ccccc21 ? Thanks! 0.14

Could you please provide reported Relative activity for CN1CCC/C1=N\CCSc1cn(C2C=CCCC2)c2ccccc12 (centres undefined) ? Thanks! 0.34

Could you please provide reported Relative activity for CN1CCC/C1=N\CCC1CNc2ccccc21 (centres undefined) ? Thanks! 0.13

Could you please provide reported Relative activity for CN1CCC/C1=N\CCSc1cn(C)c2ccccc12 ? Thanks! 0.52

Ref: ChEMBL document CHEMBL1122506
